Origin of measurements: paper PMC6272497

- TESTED SYSTEM: tyrosinase
- METHOD SUMMARY: Tyrosinase inhibition test
- Format: biochemical
- CONDITION INFO: tested at 31.25 to 500 µM
MEASURED PARAMETER: pIC50
# pIC50 is unitless: minus log10 of the molar concentration; print number only

// pIC50 lookup, compound = C=C1CCC2C(C)(C)[C@H](O)CC[C@@]2(C)[C@@H]1CC/C(C)=C\C(=O)O (stereo partly shown) [3-hydroxy-copalic acid, 3-Hydroxy-copalic acid] , result: 3.59

---

- Tested on: SF295 (human glioblastoma)
- METHOD SUMMARY: Alamar Blue assay, tumoral cells SF295
- Format: cell-based
- CONDITION INFO: 72 h, 20 µmol/L
So I've got a bunch of molecules here, and I need their Viability inhibition (%) SF295 values.
// note: answer is a bare numeric in %

// recorded Viability inhibition (%) SF295 for C=C1CCC2C(C)(C)[C@H](OC(C)=O)CC[C@@]2(C)[C@@H]1CCC(C)=CC(=O)O (stereo in doubt) : 17.7

response.value for C=C1CCC2C(C)(C)[C@H](O)CC[C@@]2(C)[C@@H]1CC/C(C)=C\C(=O)O (some centres unmarked) [3-hydroxy-copalic acid, 3-Hydroxy-copalic acid] (field: Viability inhibition (%) SF295) = 20.5

---

- Tested on: NIHOVCAR (ovary)
- METHOD SUMMARY: Alamar Blue assay, tumoral cells NIHOVCAR
- Type: cell-based
- CONDITION INFO: 72 h, 20 µmol/L
MEASURED PARAMETER: Viability inhibition (%) NIHOVCAR

Please fill in: Viability inhibition (%) NIHOVCAR reported for C=C1CCC2C(C)(C)[C@H](O)CC[C@@]2(C)[C@@H]1CC/C(C)=C\C(=O)O (some centres unmarked) [3-hydroxy-copalic acid, 3-Hydroxy-copalic acid] = ≤0.01%

For C[C@@H]1CC[C@@]2(C)C(C(=O)O)=CCC[C@@H]2[C@@]1(C)CCc1ccoc1 the compound record lists Viability inhibition (%) NIHOVCAR as ≤0.01%

The compound COC(=O)/C=C(/C)CC[C@@]1(C)[C@H](C)CC[C@@]2(C)C(C(=O)O)=CCC[C@H]12 showed Viability inhibition (%) NIHOVCAR equal to ≤0.01%

// field: Viability inhibition (%) NIHOVCAR; key: C=C1CC[C@@H]2C(C)(C)CCC[C@@]2(C)[C@@H]1CC/C(C)=C/C(=O)O ; value = ≤0.01%

The compound identified as C=C1CCC2C(C)(C)[C@H](OC(C)=O)CC[C@@]2(C)[C@@H]1CCC(C)=CC(=O)O (stereo in doubt) registered its Viability inhibition (%) NIHOVCAR at 2.0 ± 3.5%

---

- Test system: SF295 (human glioblastoma)
- METHOD SUMMARY: Alamar Blue assay, tumoral cells SF295
- Format: cell-based
- CONDITION INFO: 72 h, 20 µmol/L
MEASURED PARAMETER: Viability inhibition (%) SF295

// field: Viability inhibition (%) SF295; key: C=C1CC[C@@H]2C(C)(C)CCC[C@@]2(C)[C@@H]1CC/C(C)=C/C(=O)O [copalic acid, Copalic acid] ; value = ≤0.01%

Form field Viability inhibition (%) SF295, entry C[C@@H]1CC[C@@]2(C)C(C(=O)O)=CCC[C@@H]2[C@@]1(C)CCc1ccoc1 [hardwickiic acid, Hardwickiic acid] : ≤0.01%

Looking up COC(=O)/C=C(/C)CC[C@@]1(C)[C@H](C)CC[C@@]2(C)C(C(=O)O)=CCC[C@H]12 [kolavic acid 15-methyl ester, Kolavic acid-15-metyl ester] , I found its Viability inhibition (%) SF295 recorded as ≤0.01%
